experiment: chemical genetic growth profiling, strain panel (AID 1159580);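 note: tested at 20 µM; growth read once vehicle control cultures reached saturation at 30 °C; 1 = growth at the plate median or of vehicle wells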; conditions: S. cerevisiae deletion strains, growth OD, locus YJR043C, strain POL32
The whole screen tested about 5,500 compounds, of which about 2,000 (36%) were called active. Roughly 18% stayed inconclusive and do not appear here. Cut-off read from the data, not from the text of the source: active = normalized growth mostly below about 0.91 (no sharp cut-off); inconclusive = no clear call, values can overlap the other calls; inactive = mostly above about 0.92. The list shows a part of the results.
Allowed answers: Y = active, N = inactive

COc1ccc2c3c([nH]c2c1)C(C)=NCC3 : N
CC(C)(Sc1cc(C(C)(C)C)c(O)c(C(C)(C)C)c1)Sc1cc(C(C)(C)C)c(O)c(C(C)(C)C)c1 : N

Ask: Give the logged outcome of this assay for the following compound: `O=C(N/N=C\c1c(O)ccc2ccccc12)N/N=C\c1c(O)ccc2ccccc12`
Reply: N

Ask: Can you check `O=[N+]([O-])c1cc(Cl)ccc1S(=O)(=O)c1ccccc1` next?
Reply: N

Ask: Can you check `Cc1noc(C)c1-c1nc(-c2cc(C(F)(F)F)cc(C(F)(F)F)c2)no1` next?
Reply: N

Ask: Can you check `O=C1ON=C(c2ccccc2)/C1=C/c1ccc(Cl)cc1` next?
Reply: Y

Ask: Can you check COc1ccc(NC(=O)C(C)c2ccc(CC(C)C)cc2)cc1 (centres undefined) next?
Reply: Y

Ask: Can you check `Nc1c2c(nc3ccccc13)CCCC2` next?
Reply: N

Ask: Can you check `N[C@H](C(=O)O)[C@@H]1CC(Cl)=NO1` next?
Reply: Y

Ask: Can you check CC12CCC3C4CCC(=O)C=C4CCC3C1CCC2=O (centres undefined) next?
Reply: N

* * *

assay: chemical genetic growth profiling, strain panel (AID 1159580);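 note: tested at 20 µM; growth read once vehicle control cultures reached saturation at 30 °C; 1 = growth at the plate median or of vehicle wells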; conditions: S. cerevisiae deletion strains, growth OD, locus YLR342W, strain FKS1
Out of some 5,500 compounds screened, about 2,000 (36%) were called active. Another 18% or so got no clear call; they are omitted. No stated cut-off is given here; in the data, active means normalized growth mostly below about 0.91 (no sharp cut-off); inconclusive means no clear call, values can overlap the other calls; inactive means mostly above about 0.92. This is one part of the list.
Allowed answers: active, inactive

Example cases with answers are listed next.
O=c1[nH]cc(F)c(=O)[nH]1 : active
COc1cc(N)c(Cl)cc1C(=O)NC1CCN(Cc2ccccc2)CC1 : inactive
COc1cc(C(=O)NCCCCCC(=O)O)cc(OC)c1OC : inactive
Nc1ccccc1C(=O)CC(N)C(=O)O (stereo unspecified) : inactive
OC(CCN1CCCC1)(c1ccccc1)C1CCCCC1 (stereo unspecified) : inactive

Ask: Give the logged outcome of this assay for the following molecule: C[C@H]1[C@H](C)CC[C@]2(CO)CC[C@]3(C)C(=CCC4[C@@]5(C)CC[C@H](O)C(C)(C)C5CC[C@]43C)[C@H]12 (stereo partly specified)
Reply: inactive

* * *

test: chemical genetic growth profiling, strain panel (AID 1159580);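 note: tested at 20 µM; growth read once vehicle control cultures reached saturation at 30 °C; 1 = growth at the plate median or of vehicle wells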; settings: S. cerevisiae deletion strains, growth OD, locus YMR205C, strain PFK2, stronger effect = lower value
The campaign covered roughly 5,500 compounds. About 2,000 (36%) were called active. Inconclusive results (about 18%) are left out. The list shows a part of the results.
Reported normalized growth values for the following compounds.

Below, each entry is followed by its recorded normalized growth result.
C/C=C(/C)C(=O)O[C@@H]1[C@H](OC(C)=O)[C@@]2(CO)C(CC1(C)C)C1=CCC3[C@@]4(C)CC[C@H](O[C@@H]5O[C@H](C(=O)O)[C@@H](O[C@@H]6O[C@H](CO)[C@@H](O)[C@H](O)[C@H]6O)[C@H](O)[C@H]5O[C@@H]5O[C@H](CO)[C@@H](O)[C@H](O)[C@H]5O)[C@](C)(CO)C4CC[C@@]3(C)[C@]1(C)C[C@H]2O (stereo partly drawn) : 0.925 (inactive)
COc1c(-c2coc3cc4c(cc3c2=O)CC(OC(C)=O)C(C)(C)O4)ccc2c1C=CC(C)(C)O2 (stereo not drawn) : 1.04 (inactive)

Ask: Could you share which normalized growth value was measured for `C/C=C1\[C@H]2C=C(C)C[C@]1(N)c1ccc(=O)[nH]c1C2` ?
Reply: 1.07 (inactive)

These entries and their values trace back to PubChem BioAssay AID1159580.
